test_method_notes: Inhibition of P-gp-mediated [3H]daunorubicin transport in Wistar rat hepatocytes by scintillation counting
Assay type: cell-based
setup_conditions: hepatocyte
measurement_kind: Ki (nM)
Numbers only, in nM.

Name the reported Ki value associated with the compound COc1cc2c(cc1OC)CN(CCc1ccc(NC(=O)c3cccc4c(=O)c5cccc(OC)c5[nH]c34)cc1)CC2
35
